assay: Oral bioavailability in ICR mouse at 50 mg/kg; type: ADME, organism-based; settings: in vivo

| test smiles | measure unit | bioavailability |
| --- | --- | --- |
| C[C@@]1(O)[C@H](O)[C@@H](CO)O[C@H]1n1cnc2c(=O)[nH]c(N)nc21 | % | 85 |

---

assay: Metabolic stability in rat intestine S9 fraction assessed as compound remaining at 10 uM after 30 mins by HPLC analysis in presence of NADP; type: ADME, tissue-based; settings: read-out: Stability

| compound | remaining at 0.5 h, 10 µM, % |
| --- | --- |
| C[C@H](NP(=O)(OC[C@H]1O[C@@H](n2cnc3c(=O)[nH]c(N)nc32)[C@](C)(O)[C@@H]1O)Oc1cccc2ccccc12)C(=O)OCc1ccccc1 (stereo partly specified) | 30 |
